The measured values listed here are drawn from ChEMBL document CHEMBL2385041.

- Tested on: A-431
- Measurement protocol: Cytotoxicity against human A431 cells after 72 hrs by MTT assay
- Type: functional, cell-based
- Applied conditions: A-431, 72 h
pIC50: −log10 of the molar value.
Where pIC50 equals or exceeds 6, the correct label is MET; where it does not, the label is NOT MET.

1) COc1cc2c(c(OC)c1OC)-c1ccc(OC)c(=O)cc1[C@@H](NC(=O)CCCCCCC(=O)NO)CC2 :: NOT MET
2) COc1cc2c(c(OC)c1OC)-c1ccc(OC)c(=O)cc1[C@@H](NC(C)=O)CC2 [COLCHICINE] :: MET
3) COc1cc2c(c(OC)c1OC)-c1ccc(OC)c(=O)cc1[C@@H](NC(=O)CCC(=O)NO)CC2 :: MET
4) COc1cc2c(c(OC)c1OC)-c1ccc(OC)c(=O)cc1[C@@H](NC(=O)CCCC(=O)NO)CC2 :: NOT MET
